test.name: in vitro
particulars: human, CC50, EBV column

[
  {
    "line.notation": "CC(C)[C@H](N)C(=O)OCCOCn1cnc2c(=O)[nH]c(N)nc21",
    "CC50": "> 138 µM"
  }
]

###

target.under.test: hPEPT1 (Homo sapiens)
Construct: endogenous in cells; host or cells: Caco-2 (human colon carcinoma, ATCC)
Sequence (P46059 whole entry): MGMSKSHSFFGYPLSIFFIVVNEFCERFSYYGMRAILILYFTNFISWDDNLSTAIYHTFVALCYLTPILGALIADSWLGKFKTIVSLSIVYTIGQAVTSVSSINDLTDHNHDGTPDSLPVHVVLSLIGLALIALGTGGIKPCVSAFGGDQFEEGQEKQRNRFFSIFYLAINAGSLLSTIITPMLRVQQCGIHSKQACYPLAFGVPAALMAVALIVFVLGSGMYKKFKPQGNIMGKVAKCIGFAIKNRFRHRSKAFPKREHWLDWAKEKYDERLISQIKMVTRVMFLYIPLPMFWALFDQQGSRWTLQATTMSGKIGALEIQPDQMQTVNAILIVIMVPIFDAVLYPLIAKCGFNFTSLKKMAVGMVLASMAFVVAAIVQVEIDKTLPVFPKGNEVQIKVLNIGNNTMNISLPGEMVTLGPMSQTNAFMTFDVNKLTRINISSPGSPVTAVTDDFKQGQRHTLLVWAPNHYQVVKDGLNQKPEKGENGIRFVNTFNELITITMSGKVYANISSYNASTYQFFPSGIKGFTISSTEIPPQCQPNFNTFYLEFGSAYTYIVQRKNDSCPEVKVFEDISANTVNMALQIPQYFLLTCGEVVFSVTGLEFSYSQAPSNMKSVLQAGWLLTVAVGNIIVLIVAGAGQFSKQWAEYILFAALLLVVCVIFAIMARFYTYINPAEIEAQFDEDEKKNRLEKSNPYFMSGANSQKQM
test.name: [3H] Glycylsarcosine uptake and its inhibition in Caco-2 cells (affinity towards peptide transporter)
Assay type: cell-based
particulars: Caco-2, pH 6.0, 10 minutes
Where a SMILES comes first, the peptide text is derived from it. [ ]: non-standard residue; d: D form. Sar = CNCC(=O)O

[
  {
    "compound": "Nc1nc2c(ncn2COCCOC(=O)C(N)Cc2ccc(O)cc2)c(=O)[nH]1 (centres unmarked) [tyrosine-ACV]",
    "target.under.test": "hPEPT1 (Homo sapiens)",
    "effect on the uptake of [3H] Gly-Sar": "did not inhibit"
  },
  {
    "compound": "NCC(=O)OCCOCn1cnc2c(=O)[nH]c(N)nc21 [glycine-ACV]",
    "target.under.test": "hPEPT1 (Homo sapiens)",
    "effect on the uptake of [3H] Gly-Sar": "did not inhibit"
  },
  {
    "compound": "CC(C)[C@H](N)C(=O)N[C@H](C(=O)O)C(C)C [val-val, reference compound] (H-Val-Val-OH)",
    "target.under.test": "hPEPT1 (Homo sapiens)",
    "effect on the uptake of [3H] Gly-Sar": "significantly inhibited"
  },
  {
    "compound": "CN(CC(=O)O)C(=O)CN [Gly-Sar, glycylsarcosine, reference compound] (H-Gly-[Sar]-OH)",
    "target.under.test": "hPEPT1 (Homo sapiens)",
    "effect on the uptake of [3H] Gly-Sar": "significantly inhibited"
  },
  {
    "compound": "Nc1nc2c(ncn2COCCO)c(=O)[nH]1 [ACV]",
    "target.under.test": "hPEPT1 (Homo sapiens)",
    "effect on the uptake of [3H] Gly-Sar": "did not inhibit"
  }
]
